testedTarget: A1 adenosine receptor (Mesocricetus auratus, UniProt A0A1U8BVR4)
Construct: A1 adenosine receptor sites on the membranes of DDT cells; endogenous in cells
Sequence (A0A1U8BVR4 1-326): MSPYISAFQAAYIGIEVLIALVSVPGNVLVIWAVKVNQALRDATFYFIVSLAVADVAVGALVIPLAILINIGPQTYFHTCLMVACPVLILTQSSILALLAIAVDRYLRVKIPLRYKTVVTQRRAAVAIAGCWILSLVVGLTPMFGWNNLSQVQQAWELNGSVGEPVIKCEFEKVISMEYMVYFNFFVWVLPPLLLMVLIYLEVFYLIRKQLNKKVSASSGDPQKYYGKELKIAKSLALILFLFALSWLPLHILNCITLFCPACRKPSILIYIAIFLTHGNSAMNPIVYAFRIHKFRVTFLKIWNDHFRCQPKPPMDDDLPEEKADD
assayMethodText: Competitive radioligand binding assay, A1 binding affinity, DDT1 cell membranes
conditionParameters: membranes of DDT cells, tritiated radioligand (3H-CPA) 1.5 nM, 23° C. 90 minutes
pKi: −log10 of the molar value.
measurementKind: pKi

O=C(NCc1ccc(F)cc1)c1cnn(-c2nc(N[C@@H]3CCOC3)c3ncn([C@@H]4O[C@H](CO)[C@@H](O)[C@H]4O)c3n2)c1 [XIX]
7.37
Cc1cc(C)n(-c2nc(NC3CCCC3)c3ncn(C4O[C@H](CO)[C@@H](O)[C@H]4O)c3n2)n1 (some centres unmarked)
6.87
O=C(NCc1ccccc1)c1cnn(-c2nc(N[C@@H]3CCOC3)c3ncn([C@@H]4O[C@H](CO)[C@@H](O)[C@H]4O)c3n2)c1 [XX]
9.00
CCNC(=O)c1cnn(-c2nc(N[C@@H]3CCOC3)c3ncn([C@@H]4O[C@H](CO)[C@@H](O)[C@H]4O)c3n2)c1 [XI]
8.00
O=C(NCc1ccc(Cl)cc1)c1cnn(-c2nc(N[C@@H]3CCOC3)c3ncn([C@@H]4O[C@H](CO)[C@@H](O)[C@H]4O)c3n2)c1 [XVIII]
7.57
